- Target entity: Matrix metalloproteinase-9 (Homo sapiens, UniProt P14780)
- Sequence (P14780 whole entry): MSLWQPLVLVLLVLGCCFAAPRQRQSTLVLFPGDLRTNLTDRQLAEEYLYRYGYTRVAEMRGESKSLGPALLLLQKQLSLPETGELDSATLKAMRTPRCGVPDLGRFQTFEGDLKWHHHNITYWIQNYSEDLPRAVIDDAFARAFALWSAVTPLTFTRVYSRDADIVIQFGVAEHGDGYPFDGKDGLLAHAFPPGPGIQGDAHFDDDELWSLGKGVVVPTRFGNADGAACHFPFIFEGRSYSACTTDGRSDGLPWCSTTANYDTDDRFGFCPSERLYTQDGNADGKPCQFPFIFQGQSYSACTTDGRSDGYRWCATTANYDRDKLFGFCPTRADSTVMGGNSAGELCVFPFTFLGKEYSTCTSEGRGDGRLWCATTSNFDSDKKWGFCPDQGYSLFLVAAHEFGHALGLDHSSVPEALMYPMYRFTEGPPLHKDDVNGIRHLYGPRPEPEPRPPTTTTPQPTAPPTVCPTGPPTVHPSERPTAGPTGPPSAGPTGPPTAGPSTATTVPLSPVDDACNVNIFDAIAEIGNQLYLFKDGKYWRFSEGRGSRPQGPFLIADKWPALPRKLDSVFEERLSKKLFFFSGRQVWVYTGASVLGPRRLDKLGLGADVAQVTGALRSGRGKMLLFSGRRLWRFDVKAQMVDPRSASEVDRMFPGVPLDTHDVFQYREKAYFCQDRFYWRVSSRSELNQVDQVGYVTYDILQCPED
- Measurement description: Inhibition of human recombinant MMP-9 (Ala20 to Asp707 residues) using MOCAc-Pro-Leu-Gly-Leu-A2pr(Dnp)-Ala-Arg-NH2 as fluorogenic substrate preincubated for 15 mins followed by substrate addition by fluorescence based analysis
*1 amine or outer side, *2 acyl side, *3 side chain or, on linkers, in order; H or OH if unused. Where a SMILES comes first, the peptide text is derived from it. [ ]: non-standard residue; d: D form. The star is where a group is joined. Benzenesulfonyl(4-Cl,3-CF3) = O=S(=O)(c1ccc(Cl)c(C(F)(F)F)c1)*; γGlu = O=C(O)[C@H](CCC(=O)[*:2])N[*:1]; β3hP = O=C(O)C[C@@H]1CCCN1

{"columns": ["Molecule", "IC50"],
 "data": [
  ["O=C(O)[C@H](CCc1ccccc1)NS(=O)(=O)c1ccc(Cl)c(C(F)(F)F)c1", "> 100 µM"],
  ["CC(C)C[C@H](NC(=O)CNC(=O)CC[C@H](NS(=O)(=O)c1ccc(Cl)c(C(F)(F)F)c1)C(=O)O)C(=O)N[C@H](C(=O)N[C@@H](C)C(N)=O)C(C)C ({Benzenesulfonyl(4-Cl,3-CF3)-γGlu}-GLVA-NH2)", "> 100 µM"],
  ["CC(C)C[C@H](NC(=O)CNC(=O)CC[C@H](NS(=O)(=O)c1ccc(Cl)c(C(F)(F)F)c1)C(=O)O)C(=O)N[C@H](C(N)=O)C(C)C", "> 100 µM"],
  ["CSCC[C@H](NC(=O)[C@H](CC(C)C)NC(=O)CNC(=O)CC[C@H](NS(=O)(=O)c1ccc(Cl)c(C(F)(F)F)c1)C(=O)O)C(N)=O", "> 100 µM"],
  ["CSCC[C@H](NC(=O)[C@H](CC(C)C)NC(=O)[C@H](C)NC(=O)CC[C@H](NS(=O)(=O)c1ccc(Cl)c(C(F)(F)F)c1)C(=O)O)C(N)=O", "> 100 µM"],
  ["CC(C)C[C@H](NC(=O)CNC(=O)CC[C@H](NS(=O)(=O)c1ccc(Cl)c(C(F)(F)F)c1)C(=O)O)C(=O)N[C@H](C(=O)N1CCC[C@H]1CC(N)=O)C(C)C ({Benzenesulfonyl(4-Cl,3-CF3)-γGlu}-GLV[β3hP]-NH2)", "> 100 µM"]
]}

###

- Target entity: Matrilysin (Homo sapiens)
- Measurement description: Inhibition of human recombinant MMP-7 (Leu18 to Lys267 residues) using MOCAc-Pro-Leu-Gly-Leu-A2pr(Dnp)-Ala-Arg-NH2 as fluorogenic substrate preincubated for 15 mins followed by substrate addition by fluorescence based analysis
pIC50: −log10 of the molar value. *1 amine or outer side, *2 acyl side, *3 side chain or, on linkers, in order; H or OH if unused. Where a SMILES comes first, the peptide text is derived from it. The star is where a group is joined. Benzenesulfonyl(4-Cl,3-CF3) = O=S(=O)(c1ccc(Cl)c(C(F)(F)F)c1)*; γGlu = O=C(O)[C@H](CCC(=O)[*:2])N[*:1]
pIC50 reference
Test readout: pIC50

{"columns": ["Compound", "Target entity", "Recorded measurement"],
 "data": [
  ["CSCC[C@H](NC(=O)[C@H](CC(C)C)NC(=O)[C@H](CC(N)=O)NC(=O)CC[C@H](NS(=O)(=O)c1ccc(Cl)c(C(F)(F)F)c1)C(=O)O)C(N)=O", "Matrilysin (Homo sapiens)", 5.12],
  ["CSCC[C@H](NC(=O)[C@H](CC(C)C)NC(=O)[C@H](CC(C)C)NC(=O)CC[C@H](NS(=O)(=O)c1ccc(Cl)c(C(F)(F)F)c1)C(=O)O)C(N)=O", "Matrilysin (Homo sapiens)", 6.11],
  ["CC(C)C[C@H](NC(=O)CNC(=O)CC[C@H](NS(=O)(=O)c1ccc(Cl)c(C(F)(F)F)c1)C(=O)O)C(=O)N[C@H](C(N)=O)C(C)C", "Matrilysin (Homo sapiens)", 7.25],
  ["CC(C)C[C@H](NC(=O)CNC(=O)CC[C@H](NS(=O)(=O)c1ccc(Cl)c(C(F)(F)F)c1)C(=O)O)C(=O)N[C@H](C(=O)N[C@@H](C)C(N)=O)C(C)C ({Benzenesulfonyl(4-Cl,3-CF3)-γGlu}-GLVA-NH2)", "Matrilysin (Homo sapiens)", 7.80],
  ["CSCC[C@H](NC(=O)[C@H](CC(C)C)NC(=O)[C@H](C)NC(=O)CC[C@H](NS(=O)(=O)c1ccc(Cl)c(C(F)(F)F)c1)C(=O)O)C(N)=O", "Matrilysin (Homo sapiens)", 6.36],
  ["CSCC[C@H](NC(=O)[C@H](CC(C)C)NC(=O)CNC(=O)CC[C@H](NS(=O)(=O)c1ccc(Cl)c(C(F)(F)F)c1)C(=O)O)C(N)=O", "Matrilysin (Homo sapiens)", 6.92]
]}

###

- Target entity: Neutrophil collagenase (Homo sapiens, UniProt P22894)
- Sequence (P22894 whole entry): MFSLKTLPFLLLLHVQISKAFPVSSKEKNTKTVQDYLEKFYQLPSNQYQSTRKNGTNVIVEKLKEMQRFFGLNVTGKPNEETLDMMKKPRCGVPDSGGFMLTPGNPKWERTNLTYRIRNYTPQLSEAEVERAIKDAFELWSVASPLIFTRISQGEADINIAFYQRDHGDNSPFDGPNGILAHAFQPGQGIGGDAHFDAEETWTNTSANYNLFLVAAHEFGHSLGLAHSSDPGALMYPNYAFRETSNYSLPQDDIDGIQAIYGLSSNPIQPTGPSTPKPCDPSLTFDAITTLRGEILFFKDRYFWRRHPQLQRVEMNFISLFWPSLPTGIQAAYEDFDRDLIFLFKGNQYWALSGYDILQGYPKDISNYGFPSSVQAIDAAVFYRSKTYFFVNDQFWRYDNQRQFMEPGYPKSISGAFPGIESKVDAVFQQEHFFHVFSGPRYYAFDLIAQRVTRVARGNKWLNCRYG
- Measurement description: Inhibition of human recombinant MMP-8 (Phe21 to Gly467 residues) using MOCAc-Pro-Leu-Gly-Leu-A2pr(Dnp)-Ala-Arg-NH2 as fluorogenic substrate preincubated for 15 mins followed by substrate addition by fluorescence based analysis
pIC50: −log10 of the molar value. *1 amine or outer side, *2 acyl side, *3 side chain or, on linkers, in order; H or OH if unused. Where a SMILES comes first, the peptide text is derived from it. The star is where a group is joined. Benzenesulfonyl(4-Cl,3-CF3) = O=S(=O)(c1ccc(Cl)c(C(F)(F)F)c1)*; γGlu = O=C(O)[C@H](CCC(=O)[*:2])N[*:1]
pIC50 reference
Test readout: pIC50

{"columns": ["Compound", "Recorded measurement"],
 "data": [
  ["CSCC[C@H](NC(=O)[C@H](CC(C)C)NC(=O)[C@H](C)NC(=O)CC[C@H](NS(=O)(=O)c1ccc(Cl)c(C(F)(F)F)c1)C(=O)O)C(N)=O", "< 4.00"],
  ["O=C(O)[C@H](CCc1ccccc1)NS(=O)(=O)c1ccc(Cl)c(C(F)(F)F)c1", "< 4.00"],
  ["CC(C)C[C@H](NC(=O)CNC(=O)CC[C@H](NS(=O)(=O)c1ccc(Cl)c(C(F)(F)F)c1)C(=O)O)C(=O)N[C@H](C(=O)N[C@@H](C)C(N)=O)C(C)C ({Benzenesulfonyl(4-Cl,3-CF3)-γGlu}-GLVA-NH2)", "< 4.00"]
]}

###

- Target entity: Matrilysin (Homo sapiens, UniProt P09237)
- Sequence (P09237 whole entry): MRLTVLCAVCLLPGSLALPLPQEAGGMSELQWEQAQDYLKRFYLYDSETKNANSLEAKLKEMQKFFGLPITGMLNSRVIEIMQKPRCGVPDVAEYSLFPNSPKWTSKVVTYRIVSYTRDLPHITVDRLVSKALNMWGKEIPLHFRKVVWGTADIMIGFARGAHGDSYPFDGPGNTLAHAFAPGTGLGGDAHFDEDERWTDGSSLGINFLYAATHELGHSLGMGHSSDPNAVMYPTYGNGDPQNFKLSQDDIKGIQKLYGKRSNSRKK
- Measurement description: Inhibition of human recombinant MMP-7 (Leu18 to Lys267 residues) using MOCAc-Pro-Leu-Gly-Leu-A2pr(Dnp)-Ala-Arg-NH2 as fluorogenic substrate preincubated for 15 mins followed by substrate addition by fluorescence based analysis
*1 amine or outer side, *2 acyl side, *3 side chain or, on linkers, in order; H or OH if unused. Where a SMILES comes first, the peptide text is derived from it. [ ]: non-standard residue; d: D form. The star is where a group is joined. Benzenesulfonyl(4-Cl,3-CF3) = O=S(=O)(c1ccc(Cl)c(C(F)(F)F)c1)*; γGlu = O=C(O)[C@H](CCC(=O)[*:2])N[*:1]; β3hP = O=C(O)C[C@@H]1CCCN1
Test readout: IC50 (nM)

{"columns": ["Compound", "Target entity", "Recorded measurement"],
 "data": [
  ["CSCC[C@H](NC(=O)[C@H](Cc1ccccc1)NC(=O)CNC(=O)CC[C@H](NS(=O)(=O)c1ccc(Cl)c(C(F)(F)F)c1)C(=O)O)C(N)=O", "Matrilysin (Homo sapiens, UniProt P09237)", 110],
  ["O=C(O)[C@H](CCc1ccccc1)NS(=O)(=O)c1ccc(Cl)c(C(F)(F)F)c1", "Matrilysin (Homo sapiens, UniProt P09237)", 6100],
  ["CSCC[C@H](NC(=O)[C@H](CC(C)C)NC(=O)[C@H](CCC(N)=O)NC(=O)CC[C@H](NS(=O)(=O)c1ccc(Cl)c(C(F)(F)F)c1)C(=O)O)C(N)=O", "Matrilysin (Homo sapiens, UniProt P09237)", 1300],
  ["CSCC[C@H](NC(=O)[C@H](CC(C)C)NC(=O)[C@H](CO)NC(=O)CC[C@H](NS(=O)(=O)c1ccc(Cl)c(C(F)(F)F)c1)C(=O)O)C(N)=O", "Matrilysin (Homo sapiens, UniProt P09237)", 5700],
  ["CC(C)C[C@H](NC(=O)CNC(=O)CC[C@H](NS(=O)(=O)c1ccc(Cl)c(C(F)(F)F)c1)C(=O)O)C(=O)N[C@H](C(=O)N1CCC[C@H]1CC(N)=O)C(C)C ({Benzenesulfonyl(4-Cl,3-CF3)-γGlu}-GLV[β3hP]-NH2)", "Matrilysin (Homo sapiens, UniProt P09237)", 10],
  ["CSCC[C@H](NC(=O)[C@H](CC(C)C)NC(=O)[C@H](C)NC(=O)C[C@H](NS(=O)(=O)c1ccc(Cl)c(C(F)(F)F)c1)C(=O)O)C(N)=O", "Matrilysin (Homo sapiens, UniProt P09237)", 4700],
  ["CSCC[C@H](NC(=O)[C@H](C)NC(=O)[C@H](C)NC(=O)CC[C@H](NS(=O)(=O)c1ccc(Cl)c(C(F)(F)F)c1)C(=O)O)C(N)=O", "Matrilysin (Homo sapiens, UniProt P09237)", 6700],
  ["CC(C)C[C@H](NC(=O)[C@H](C)NC(=O)CC[C@H](NS(=O)(=O)c1ccc(Cl)c(C(F)(F)F)c1)C(=O)O)C(=O)N[C@@H](C)C(N)=O", "Matrilysin (Homo sapiens, UniProt P09237)", 1700],
  ["CC(C)C[C@H](NC(=O)CNC(=O)CC[C@H](NS(=O)(=O)c1ccc(Cl)c(C(F)(F)F)c1)C(=O)O)C(=O)N[C@H](C(=O)N1CCC[C@H]1C(N)=O)C(C)C ({Benzenesulfonyl(4-Cl,3-CF3)-γGlu}-GLVP-NH2)", "Matrilysin (Homo sapiens, UniProt P09237)", 19]
]}
